Where do the numbers come from? From the Immune Epitope Database (IEDB).

# measured on: HLA-A*29:02
# assay notes: IEDB peptide-MHC binding, purified MHC/competitive/radioactivity; filed as Kd, often an IC50 or EC50 that approximates it; bounds were set here for any values at or beyond the usual limits of such assays
# experimental conditions: source organism: Mammarenavirus lassaense

{"columns": ["sequence string", "unit annotation", "Kd"],
 "data": [
  ["AGFPAGLTY", "nM", 68.9]
]}

* * *

# measured on: HLA-B*44:02
# assay notes: IEDB peptide-MHC binding, purified MHC/direct/fluorescence; filed as Kd, often an IC50 or EC50 that approximates it; bounds were set here for any values at or beyond the usual limits of such assays
# experimental conditions: source organism: Entamoeba histolytica
measurement name: Kd

{"columns": ["sequence string", "observed value"],
 "data": [
  ["KLMPGSIYV", "≥ 20 µM"]
]}
